- Assayed Target: IL-17A with IL-17RA/IL-17RC receptor (HEK-Blue IL-17 reporter cells) (Homo sapiens)
- Construct: IL-17A ligand supplied by the manufacturer, added to HEK 293 cells stably transfected with IL-17RA/IL-17RC heterodimeric receptor and Act1 adaptor; SEAP reporter (NF-kB/AP-1); with Interleukin-17 receptor A; Interleukin-17 receptor C
- Sequence (Q16552 24-155): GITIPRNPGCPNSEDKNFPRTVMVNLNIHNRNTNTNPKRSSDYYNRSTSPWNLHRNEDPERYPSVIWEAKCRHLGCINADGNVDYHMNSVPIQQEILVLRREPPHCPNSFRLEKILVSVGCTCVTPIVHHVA
- Sequence (Q96F46 33-866 partner): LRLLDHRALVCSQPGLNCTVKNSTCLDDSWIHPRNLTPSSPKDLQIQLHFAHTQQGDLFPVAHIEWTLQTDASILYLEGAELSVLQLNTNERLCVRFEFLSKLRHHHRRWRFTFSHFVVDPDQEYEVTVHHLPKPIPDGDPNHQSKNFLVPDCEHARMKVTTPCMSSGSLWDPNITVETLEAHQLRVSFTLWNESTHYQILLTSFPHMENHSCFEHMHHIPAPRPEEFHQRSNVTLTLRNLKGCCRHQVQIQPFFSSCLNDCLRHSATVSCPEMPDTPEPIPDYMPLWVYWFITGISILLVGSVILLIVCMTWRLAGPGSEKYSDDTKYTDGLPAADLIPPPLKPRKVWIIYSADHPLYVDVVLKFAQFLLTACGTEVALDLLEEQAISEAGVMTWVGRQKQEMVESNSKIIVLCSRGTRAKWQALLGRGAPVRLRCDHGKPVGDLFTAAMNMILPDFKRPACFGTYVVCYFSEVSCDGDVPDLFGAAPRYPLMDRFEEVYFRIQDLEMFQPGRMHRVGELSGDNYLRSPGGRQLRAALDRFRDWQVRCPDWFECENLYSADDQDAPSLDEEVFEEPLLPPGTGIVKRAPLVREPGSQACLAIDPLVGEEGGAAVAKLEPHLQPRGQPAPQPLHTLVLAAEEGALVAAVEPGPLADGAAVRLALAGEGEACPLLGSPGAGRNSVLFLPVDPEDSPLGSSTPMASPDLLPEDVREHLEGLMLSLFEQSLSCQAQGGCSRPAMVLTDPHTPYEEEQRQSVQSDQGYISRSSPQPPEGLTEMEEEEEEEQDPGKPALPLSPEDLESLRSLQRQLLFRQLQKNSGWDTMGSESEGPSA
- Sequence (Q8NAC3 21-791 partner): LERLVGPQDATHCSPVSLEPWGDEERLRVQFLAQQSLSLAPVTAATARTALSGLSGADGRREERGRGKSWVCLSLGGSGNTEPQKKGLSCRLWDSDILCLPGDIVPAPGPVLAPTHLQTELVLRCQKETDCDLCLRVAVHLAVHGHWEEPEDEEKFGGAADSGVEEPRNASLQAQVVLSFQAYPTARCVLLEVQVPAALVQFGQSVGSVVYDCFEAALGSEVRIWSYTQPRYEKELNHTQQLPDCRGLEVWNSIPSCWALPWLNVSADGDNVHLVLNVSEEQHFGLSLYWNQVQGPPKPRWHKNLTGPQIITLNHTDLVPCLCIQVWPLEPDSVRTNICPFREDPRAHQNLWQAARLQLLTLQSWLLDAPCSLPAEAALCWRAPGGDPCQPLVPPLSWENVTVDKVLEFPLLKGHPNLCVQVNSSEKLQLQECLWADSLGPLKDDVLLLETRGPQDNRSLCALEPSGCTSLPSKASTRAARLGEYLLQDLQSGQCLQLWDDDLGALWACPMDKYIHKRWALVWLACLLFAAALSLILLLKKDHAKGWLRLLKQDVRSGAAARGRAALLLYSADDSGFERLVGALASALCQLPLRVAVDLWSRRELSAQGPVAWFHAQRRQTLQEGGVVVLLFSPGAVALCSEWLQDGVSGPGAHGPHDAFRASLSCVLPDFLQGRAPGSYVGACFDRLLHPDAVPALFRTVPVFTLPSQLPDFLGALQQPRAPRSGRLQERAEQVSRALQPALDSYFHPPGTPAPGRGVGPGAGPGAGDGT
- Protocol: SEAP reporter assay in HEK-Blue IL-17 cells, QUANTI-Blue […] nm
- Measurement Conditions: IL-17A-stimulated cells, 37 °C overnight, 1 nM to 100 μM, four-parameter fit; indirect downstream reporter read-out (NF-kB/AP-1), binding site not shown experimentally
Readout Type: IC50 (µM)
Give the value, in units of µM, as a plain number.

Fill: IC50 (IL-17A with IL-17RA/IL-17RC receptor (HEK-Blue IL-17 reporter cells) (Homo sapiens)) for this compound "NC(=O)c1cccc2cn(-c3ccc([C@@H]4CCCNC4)cc3)nc12"
70
